- Assay target: T1, hGDF11 homodimer (human, UniProt O95390 299-407)
- T1 sequence (looked up): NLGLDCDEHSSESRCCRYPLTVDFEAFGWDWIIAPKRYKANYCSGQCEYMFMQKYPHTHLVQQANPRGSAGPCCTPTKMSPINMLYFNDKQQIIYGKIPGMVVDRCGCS
- Measurement description: cell-based or functional assay
Quantity name: IC50, GDF11-inducible luciferase, A204/Smad2 cells, 0.8 nM GDF11

| Binder | Result |
| --- | --- |
| 4E3-7 (antibody, V domains shown) VH: EVQLLESGGGLVQPGGSLRLSCVASRFTFSSNAMSWVRQAPGTGLEWVSAITGSGSRTYYADSVKGRFTISRDNSKNTVYLQMNSLRGEDTAVYYCAKDQGGTWNYGDFDYWGQGTLVTVSS VL: EIVMTQSPATLSVSPGERATLSCRASQSVSSNLAWYQQKPGQAPRLLIYGASTRATGLPARFSGSGSGTDFTLTISSLQSEDFAVYYCQQYNNWPLTFGGGTKVEIK | > 25 nM |
| 21-A2 (antibody, V domains shown) VH: QVQLVQSGGGLVQPGGSLRLSCAASGFTFNTYAISWVRQAPGKGLEWVSTITGSGYNTYYADSVKGRFTISRDNSKNTLYLQMSSLRAEDTAVFYCAKDSRYNWNYGIFDYWGQGTTVTVSS VL: DIQMTQSPATLSVSPGERATLSCRASQSVSSNLAWYHQKPGQAPRLLIYGVSTRATGIPARFSGNGSGTEFTLTISSLQSEDFAVYYCQQHNNWPLTFGGGTKVEIKR | > 10 nM |
| 22-D3 (antibody, V domains shown) VH: QVQLVQSGGGLVKPGGSLRLSCAASGFTFSSYSMNWVRQAPGKGLEWVSSISSSSSYIYYADSVKGRFTISRDNAKNSLYLQMNSLRAEDTAVYYCARDRGYTFGVDYWGQGTTVTVSS VL: AIQMTQSPSSLSASVGDRVTITCRASQGIRNDLGWYQQKPGKAPKRLIYAASSLQSGVPSRFSGSGSGTEFTLTISSLQPEDFATYYCLQHNSYPYTFGQGTKVEIKR | > 25 nM |
| 22-G10 (antibody, V domains shown) VH: QVHLKESGPTLVKPTQTLTLTCTFSGFSLSTSGVGVGWIRQPPGKALEWLALIYWNDDKRYSPSLKSRLTITKDTSKNQVVLTMTNMDPVDTATYYCTHTSRYNWHYGFLDYWGQGTTVTVSS VL: AIQMTQSPSSLSASVGDRVTITCRASQGISNYLAWFQQKPGKAPKSLIYAASSLQSGVPSKFSGSGSGTDFTLTISSLQPEDFATYYCQQYNSYPLTFGGGTKVEIKR | > 25 nM |
| 20B12 (antibody, V domains shown) VH: EVQLLESGGGLVQPGGSLRLSCAGSGITFSSYAMSWVRQAPGKGLEWVSAISGNGGTTNYADSVKGRFTISRDNSKNTLYLQMNSLRAEDTAVYYCAKERILTSSWTRYGIMDVWGQGTTVTVSS VL: EIVMTQSPATLSMSPGERATLSCRASQSVSSNLAWYQQKPGQAPRLLIYGASTRATGIPARFSGSGSGTEFTLTISSLQSEDFAVYYCQQYNNWPLTFGGGTKLEIK | > 25 nM |

Each recorded value in this set is attributed to patent US20160340421A1.
